Test: HepG2 cytotoxicity, primary screen, cytotoxicity control for P. falciparum antimalarial project, cell-based, ATP luminescence (AID 2303)
Conditions: HepG2 viability, 24-48 h, at 10 µM
Activity calls are given as the source filed them.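 The calls were made as follows: active = inhibition above 50%; inactive = the rest.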
Allowed answers: active, inactive

A selection of reference data follows.
> print(dat)
                                   compound  discrete.label
1  CNC(=O)c1cnc(Nc2ccc(N3CCN(C)CC3)cc2)nc1Nc1cccc([N+](=O)[O-])c1        inactive
2  Cc1cc(Nc2ccc(C)c(Cl)c2)n2nc(C(F)(F)F)nc2n1        inactive

What call does the record list for `O=C(Nc1ccc(Cl)cc1)Nc1nc2ccc([N+](=O)[O-])cc2[nH]1` ?
inactive

Each compound tested received a call. Report the one for `CCC(=O)c1ccc(-c2ccc(=O)n(CC(=O)N(CCN(CC)CC)Cc3ccc(-c4ccc(C(F)(F)F)cc4)cc3)n2)cc1` .
active

Values compiled from PubChem BioAssay.
